Could you please report measured pKi for the items listed next?
Biological target: UniProt:Q9Y2K2
Sequence (Q9Y2K2 whole entry): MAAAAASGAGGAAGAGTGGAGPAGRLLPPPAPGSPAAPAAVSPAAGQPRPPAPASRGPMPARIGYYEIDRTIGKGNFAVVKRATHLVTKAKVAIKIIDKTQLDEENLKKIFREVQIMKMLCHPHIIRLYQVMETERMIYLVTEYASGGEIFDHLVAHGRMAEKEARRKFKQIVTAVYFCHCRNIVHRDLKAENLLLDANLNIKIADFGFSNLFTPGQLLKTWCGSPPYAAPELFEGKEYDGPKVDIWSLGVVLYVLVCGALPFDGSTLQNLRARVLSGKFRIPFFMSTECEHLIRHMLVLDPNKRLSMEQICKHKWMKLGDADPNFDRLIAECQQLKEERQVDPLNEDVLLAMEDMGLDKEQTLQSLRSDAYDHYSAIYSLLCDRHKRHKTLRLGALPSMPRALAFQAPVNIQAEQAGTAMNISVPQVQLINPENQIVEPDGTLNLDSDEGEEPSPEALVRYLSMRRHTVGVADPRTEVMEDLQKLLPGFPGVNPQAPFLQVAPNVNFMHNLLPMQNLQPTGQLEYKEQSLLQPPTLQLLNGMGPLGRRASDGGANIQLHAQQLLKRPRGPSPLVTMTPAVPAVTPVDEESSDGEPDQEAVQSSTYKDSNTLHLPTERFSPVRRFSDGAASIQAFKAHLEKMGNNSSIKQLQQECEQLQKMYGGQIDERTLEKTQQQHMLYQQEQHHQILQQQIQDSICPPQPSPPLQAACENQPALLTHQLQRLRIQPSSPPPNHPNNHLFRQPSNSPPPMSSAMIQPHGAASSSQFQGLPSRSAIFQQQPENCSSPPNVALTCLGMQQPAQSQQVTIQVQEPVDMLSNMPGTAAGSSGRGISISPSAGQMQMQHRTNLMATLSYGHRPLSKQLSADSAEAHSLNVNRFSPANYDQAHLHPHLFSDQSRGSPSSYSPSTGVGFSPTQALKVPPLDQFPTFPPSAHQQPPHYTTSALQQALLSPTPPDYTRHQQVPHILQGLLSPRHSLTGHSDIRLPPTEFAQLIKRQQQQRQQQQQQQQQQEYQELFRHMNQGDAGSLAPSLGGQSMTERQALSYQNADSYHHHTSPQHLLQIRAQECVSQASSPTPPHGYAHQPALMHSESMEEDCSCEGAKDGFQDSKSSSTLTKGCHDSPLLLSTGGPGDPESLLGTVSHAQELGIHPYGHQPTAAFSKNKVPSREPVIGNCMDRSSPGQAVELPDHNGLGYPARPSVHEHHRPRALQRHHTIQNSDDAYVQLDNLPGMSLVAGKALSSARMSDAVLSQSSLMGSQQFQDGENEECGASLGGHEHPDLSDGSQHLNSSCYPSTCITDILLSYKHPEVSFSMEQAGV
Assay: SIK3 kinase assay, IMAP fluorescence polarization
Assay type: biochemical
Conditions: 50 or 100 μM ATP; average; read-out: SIK3-AVERAGE Ki
One number for each entry, as −log10 of the molar value.

// below: answered compounds
• CNc1cc2c(cn1)CN(c1c(C)cccc1F)C(=O)N2[C@H]1CC[C@@H](N(C)C)CC1 = 7.73
• CNc1cc2c(cn1)CN(c1c(C)cccc1F)C(=O)N2C1CN(C)C1 = 6.75
• Cc1cccc(F)c1N1Cc2cnc(N)nc2N([C@@H]2CCCCN(C)C2)C1=O = 7.33
• Cc1cccc(F)c1N1Cc2cnc(N)cc2N([C@H]2CCC[C@@H](N(C)C)C2)C1=O (relative stereo) = 7.87
• Cc1cccc(F)c1N1Cc2cnc(N)nc2N([C@H]2CC[C@H](N(C)C)CC2)C1=O = 9.00

Hi, could you look up pKi for each item in my list?
1. Cc1cccc(F)c1N1Cc2cnc(N)nc2N(C2CNC2)C1=O
2. Cc1cccc(F)c1N1Cc2cnc(N)cc2N([C@H]2CCCCNC2)C1=O
3. Cc1cccc(F)c1N1Cc2cnc(N)nc2N([C@H]2CCCN(C)CC2)C1=O

Given back:
1: 7.96; 2: 7.17; 3: 8.67
